Data provenance: patent US20260125457A1

- test.system: CALRins5 (mutant calreticulin, 5 base pair insertion, Type 2) expressed with MPL on engineered cancer cells (UniProt P27797)
- Sequence (P27797 other isoform, or with tags, fused parts or gaps mutant limits assumed): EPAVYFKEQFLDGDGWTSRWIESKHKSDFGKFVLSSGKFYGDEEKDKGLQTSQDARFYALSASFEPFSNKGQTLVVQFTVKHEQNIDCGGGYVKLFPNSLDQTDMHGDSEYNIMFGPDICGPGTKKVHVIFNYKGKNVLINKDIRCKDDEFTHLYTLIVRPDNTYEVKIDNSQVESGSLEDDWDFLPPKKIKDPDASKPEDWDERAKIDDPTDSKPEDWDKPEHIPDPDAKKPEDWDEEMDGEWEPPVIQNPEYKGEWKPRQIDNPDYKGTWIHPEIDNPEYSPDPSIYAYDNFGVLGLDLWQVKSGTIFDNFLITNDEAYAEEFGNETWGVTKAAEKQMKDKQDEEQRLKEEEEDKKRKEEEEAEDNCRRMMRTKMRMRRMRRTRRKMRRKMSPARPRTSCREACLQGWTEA
- assay.name: cell-based or functional assay
observation.type: Cytotoxicity EC50, K562 MPL CALRins5 cells (µg/mL)
Express it in µg/mL; write the number only.

stdin: Input CALRB77 (MP1010 Fab x CD3W245-LH-scFv, medium affinity) (bispecific antibody, part only; not given: anti-CD3 scFv arm, constant regions, V domains shown, not shown: another chain or arm of the molecule; a dimerising Fc or GST; small tags and cut ends) VL: DPMLTQTPSSVSAAVGGTVTIGCQSSQSVYDKNWLSWYQQKPGQPPSRLIYDASKLESGVPSRFSGSGSGTQFTLTISGVQSDDVATYYCAGGFTGNVYAFGGGTEVVVK VH: QSVEESGGRLVTPGTPLTLTCTVSGIDLSNNAISWVRQAPGKGLEYIGVIGNTGDTYYASWAKGRFTISKTSSTTVDLKMTSLTTEDTATYFCVRGPPSYSNSVKNIWGPGTLVTISS , output reported Cytotoxicity EC50, K562 MPL CALRins5 cells.
stdout: 0.414
